System: Plasmodium berghei
experiment.summary: Screen against P. berghei liver stage (PbLuc), transformed with Luciferase, at 2uM
Assay type: functional, HepG2
condition.description: tested at 2 uM
Screen size: about 68,000 compounds; about 2,700 (4%) showed an effect of 50% or more. This is one part of a sample in which strong results are shown more often than they occur.
observed.property: INHIBITION

Recorded results for 8 compounds are shown here.
{"columns": ["compound", "observed.property", "value.measured"],
 "data": [
  ["CN(CC1Cc2ccccc2CN1C)C(=O)CSc1nccn1C (stereo not given)", "INHIBITION", "53.61%"],
  ["CN(CC1Cc2ccccc2CN1C)C(=O)CSc1ccccn1 (stereo not given)", "INHIBITION", "35.54%"],
  ["CC(C)N1CCO[C@H]2CN(C(=O)Cc3cccs3)C[C@H]21", "INHIBITION", "9.87%"],
  ["CC(C)c1nccn1C1CCCN(C(=O)c2ccc3c(c2)COC3)C1 (stereo not given)", "INHIBITION", "54.28%"],
  ["CCN1CCc2[nH]cnc2C12CCN(c1ccc(Cl)c(C(=O)O)n1)CC2", "INHIBITION", "-3.87%"],
  ["CC(C)COC(=O)N1CCCN(C(C)c2nc(C(C)C)no2)CC1 (stereo not given)", "INHIBITION", "4.49%"],
  ["Cn1c(CN2CCCCC2)cc(=O)c(O)c1CN1CCCCC1", "INHIBITION", "14.97%"],
  ["Cc1cn(CC(=O)NC2CCN(C(=O)C3CC3)CC2)c2ccccc12", "INHIBITION", "41.44%"]
]}

# context switch: different compound, same INHIBITION
Problem: Using the record for O=C(NCCn1cccc1)C1CCN(C2CCCCC2)CC1 , report its INHIBITION.
Solution: 10.72%

Source of measurements: ChEMBL document CHEMBL4513216
